- assay.info: % stability in human plasma after 10 minutes.
- Assay type: ADME, organism-based
- recorded.conditions: plasma, read-out: Stability
property.measured: remaining at 10 min (%)
Note: unit % is implicit; provide only the numeric part.

What measured remaining at 10 min goes with CC1(C)O[C@@H]2CC3C4C[C@H](F)C5=CC(=O)CC[C@]5(C)[C@@]4(F)[C@@H](O)C[C@]3(C)[C@]2(SC2CCOC2=O)O1 (some centres not stated) ? 20

Any idea what remaining at 10 min was measured for CCC[C@@H]1O[C@@H]2CC3C4C[C@H](F)C5=CC(=O)CC[C@]5(C)[C@@]4(F)[C@@H](O)C[C@]3(C)[C@]2(S[C@@H]2CCOC2=O)O1 (some centres not stated) ? 19

Requested read-out: remaining at 10 min. Entry: CC1(C)O[C@@H]2CC3C4C[C@H](F)C5=CC(=O)C=C[C@]5(C)[C@@]4(F)[C@@H](O)C[C@]3(C)[C@]2(CC2CCOC2=O)O1 (single isomer, unassigned; isomer B) 100

====

- assay.info: half life in human plasma.
- Format: ADME, organism-based
Measured half-life of individual entries
Numbers only; they are read as min.

compound	property.measured	numeric.readout
CC1(C)O[C@@H]2CC3C4C[C@H](F)C5=CC(=O)C=C[C@]5(C)[C@@]4(F)[C@@H](O)C[C@]3(C)[C@]2(SC2CCOC2=O)O1 (stereo partly drawn)	half-life	4

We now examine a further compound.
Can you look up the measured half-life of CCC[C@@H]1O[C@@H]2CC3C4C[C@H](F)C5=CC(=O)CC[C@]5(C)[C@@]4(F)[C@@H](O)C[C@]3(C)[C@]2(S[C@@H]2CCOC2=O)O1 (stereo partly drawn) for me? 5

====

Listed below: remaining at 1 h values for each entry.
- assay.info: % stability in krebs buffer after 60 minutes.
- Format: physicochemical
- recorded.conditions: Krebs buffer; read-out: Stability
Please state the figure in %; there is no need to write the unit.

// worked examples, remaining at 1 h included
compound	remaining at 1 h / %
CC1(C)O[C@@H]2CC3C4C[C@H](F)C5=CC(=O)CC[C@]5(C)[C@@]4(F)[C@@H](O)C[C@]3(C)[C@]2(S[C@@H]2CCOC2=O)O1 (stereo partly drawn)	92
CCC[C@@H]1O[C@@H]2CC3C4C[C@H](F)C5=CC(=O)C=C[C@]5(C)[C@@]4(F)[C@@H](O)C[C@]3(C)[C@]2(S[C@@H]2CCOC2=O)O1 (stereo partly drawn)	100

State the recorded remaining at 1 h for this entry: CCC[C@@H]1O[C@@H]2CC3C4C[C@H](F)C5=CC(=O)CC[C@]5(C)[C@@]4(F)[C@@H](O)C[C@]3(C)[C@]2(S[C@@H]2CCOC2=O)O1 (stereo partly drawn) 91

====

Each entry below carries its recorded Stability.
- Species: Homo sapiens
- assay.info: % stability in human plasma after 60 minutes.
- Type: ADME, organism-based
- recorded.conditions: 1 h
The answer is to be given in %; state only the numeric part.

# input molecule: CC1(C)O[C@@H]2CC3C4C[C@H](F)C5=CC(=O)C=C[C@]5(C)[C@@]4(F)[C@@H](O)C[C@]3(C)[C@]2(CC2CCOC2=O)O1 (single isomer, unassigned; isomer A) ; wanted: its Stability 100

Please look up its Stability: CCC[C@@H]1O[C@@H]2CC3C4C[C@H](F)C5=CC(=O)CC[C@]5(C)[C@@]4(F)[C@@H](O)C[C@]3(C)[C@]2(SC2COC(=O)C2)O1 (single isomer, unassigned; isomer B) 0

Need Stability of CC1=C(SC2CCOC2=O)[C@@]2(C)C[C@H](O)[C@@]3(F)C(CCC4=CC(=O)C=C[C@@]43C)C2C1 (single isomer, unassigned; isomer A) , thanks. 13

What does the record list as Stability for CCC[C@@H]1O[C@@H]2CC3C4C[C@H](F)C5=CC(=O)CC[C@]5(C)[C@@]4(F)[C@@H](O)C[C@]3(C)[C@]2(SC2COC(=O)C2)O1 (single isomer, unassigned; isomer A) ? 19
